Data credit: patent US20210363269A1

# EXPERIMENTAL SYSTEM: T1, C57BL/6 mouse SIRP-α D1 domain (mouse (C57BL/6 strain), UniProt P97797 32-148)
# T1 sequence: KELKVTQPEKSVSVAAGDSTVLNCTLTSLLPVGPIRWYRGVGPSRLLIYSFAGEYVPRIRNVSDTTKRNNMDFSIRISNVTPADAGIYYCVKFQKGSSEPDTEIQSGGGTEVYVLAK
# PROTOCOL DESCRIPTION: SPR, antibody immobilised on GLC chip
pKd: −log10 of the molar value.
Below: a set of entries, each annotated with reported pKd.
READOUT NAME: pKd

[[record]]
binder = "antibody 136 variant MutRv_I2T/mut_V34M (antibody, human IgG1, V domains shown, Human IgG1 with L234A/L235A/G237A/N297A; Labels are light chain/heavy chain) VH: EVQLVESGGGVVQPGRSLRLSCAASGFTFSSYDMNWVRQAPGKGLEWVSLISGSGEIIYYADSVKGRFTISRDNSKNTLYLQMNSLRAEDTAVYYCAKENNRYRFFDDWGQGTLVTVSS VL: ETVLTQSPGTLSLSPGERATLSCRASQSVYTYLAWYQQKPGQAPRLLIYGASSRATGIPDRFSGSGSGTEFTLTISSLQSEDFAVYYCQQYYDRPPLTFGGGTKVEIK"
value = 7.86

[[record]]
binder = "antibody 136 variant MutRv_I2T/mut (antibody, human IgG1, V domains shown, Human IgG1 with L234A/L235A/G237A/N297A; Labels are light chain/heavy chain) VH: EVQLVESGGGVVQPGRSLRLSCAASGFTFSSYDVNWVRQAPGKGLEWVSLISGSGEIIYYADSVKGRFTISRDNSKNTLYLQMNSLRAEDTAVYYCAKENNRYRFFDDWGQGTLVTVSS VL: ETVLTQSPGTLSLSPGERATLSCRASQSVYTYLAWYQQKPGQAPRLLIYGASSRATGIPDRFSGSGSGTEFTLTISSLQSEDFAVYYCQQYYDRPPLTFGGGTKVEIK"
value = 7.82

[[record]]
binder = "antibody 136 variant MutRv_S12T/mut (antibody, human IgG1, V domains shown, Human IgG1 with L234A/L235A/G237A/N297A; Labels are light chain/heavy chain) VH: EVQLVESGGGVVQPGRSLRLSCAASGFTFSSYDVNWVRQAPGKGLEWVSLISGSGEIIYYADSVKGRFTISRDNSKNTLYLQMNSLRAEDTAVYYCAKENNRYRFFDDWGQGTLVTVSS VL: EIVLTQSPGTLTLSPGERATLSCRASQSVYTYLAWYQQKPGQAPRLLIYGASSRATGIPDRFSGSGSGTEFTLTISSLQSEDFAVYYCQQYYDRPPLTFGGGTKVEIK"
value = 7.79

